system: 317291-083-R-J1-PDC complex spheroids, viability; experiment: Anticancer human tumor 317291-083-R-J1-PDC patient-derived soft tissue sarcoma cell line growth inhibition [GQUAD]; conditions: second compound 0.316 µM; first compound 0.0999 µM; stronger effect = lower value;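 also: spheroids exposed to compounds for one week before readout; percent viability relative to DMSO vehicle wells taken as 100%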
measuredEndpoint: viability, T/C (%)
Dear colleague, please return just the value in %, with no unit written.

## Input Return reported viability, T/C; argument: Cc1[nH]c2ccccc2c1CCNCc1ccc(/C=C/C(=O)NO)cc1 + CN(C)c1ccc(Nc2c3ccc(NC(=O)CCN4CCCC4)cc3nc3cc(NC(=O)CCN4CCCC4)ccc23)cc1
## Output 5.76

## Input Record: Cn1ncnc1[C@H]1c2n[nH]c(=O)c3cc(F)cc(c23)N[C@@H]1c1ccc(F)cc1 + Cc1[nH]c2ccc(F)cc2c1-c1nc2c3cccnc3c3ncccc3c2[nH]1
## Output 108

## Input Record: CCc1c2c(nc3ccc(O)cc13)-c1cc3c(c(=O)n1C2)COC(=O)[C@]3(O)CC + CN(C)c1ccc(Nc2c3ccc(NC(=O)CCN4CCCC4)cc3nc3cc(NC(=O)CCN4CCCC4)ccc23)cc1
## Output 8.7

## Input Record: CC[C@@]1(O)C(=O)OCc2c1cc1n(c2=O)Cc2cc3c(CN(C)C)c(O)ccc3nc2-1 + Cc1[nH]c2ccc(F)cc2c1-c1nc2c3cccnc3c3ncccc3c2[nH]1
## Output 24.1

## Input Record: Cn1ncnc1[C@H]1c2n[nH]c(=O)c3cc(F)cc(c23)N[C@@H]1c1ccc(F)cc1 + CN(C)c1ccc(Nc2c3ccc(NC(=O)CCN4CCCC4)cc3nc3cc(NC(=O)CCN4CCCC4)ccc23)cc1
## Output 60.5

## Input Record: CCc1c2c(nc3ccc(O)cc13)-c1cc3c(c(=O)n1C2)COC(=O)[C@]3(O)CC + Cc1[nH]c2ccc(F)cc2c1-c1nc2c3cccnc3c3ncccc3c2[nH]1
## Output 6.58

## Input Record: Cn1ncnc1[C@H]1c2n[nH]c(=O)c3cc(F)cc(c23)N[C@@H]1c1ccc(F)cc1 + Cc1cnc(CNC(=O)c2c(=O)c3ccc(N4CCCN(C)CC4)nc3n3c2sc2ccccc23)cn1
## Output 36.7

These data points were gathered from PubChem BioAssay AID2060497.
